Values were extracted from paper PMC7840908.

target-under-test: MERS-CoV macro domain (Middle East respiratory syndrome-related coronavirus, UniProt K9N638)
Sequence (K9N638 1110-1276 limits assumed): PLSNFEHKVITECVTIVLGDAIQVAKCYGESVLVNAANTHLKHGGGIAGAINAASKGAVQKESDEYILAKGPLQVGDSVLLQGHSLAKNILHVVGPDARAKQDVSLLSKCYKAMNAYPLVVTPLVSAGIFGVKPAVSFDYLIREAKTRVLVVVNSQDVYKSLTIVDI
Assay type: binding
endpoint-label: Melting temperature (Tm) of the MERS-CoV macro domain in complex, DSF (°C)

# compound, value
rows = [
    ("NC(=O)c1ccc[n+]([C@@H]2O[C@H](COP(=O)([O-])OP(=O)(O)OC[C@H]3O[C@@H](n4cnc5c(N)ncnc54)[C@H](O)[C@@H]3O)[C@@H](O)[C@H]2O)c1 [NAD, nicotinamide adenine dinucleotide]", 46.5),
    ("Nc1ncnc2c1ncn2C1OC(COP(=O)(O)O)C(O)C1O (centres unmarked) [AMP, adenosine monophosphate]", 42.5),
    ("Nc1ncnc2c1ncn2C1OC(COP(=O)(O)OP(=O)(O)OCC2OC(O)C(O)C2O)C(O)C1O (centres unmarked) [ADPR, ADP-ribose]", 49.0),
    ("Nc1ncnc2c1ncn2[C@@H]1O[C@H](COP(=O)(O)OP(=O)(O)O)[C@@H](O)[C@H]1O [ADP, adenosine diphosphate]", 44.5),
    ("Nc1ncnc2c1ncn2[C@@H]1O[C@H](COP(=O)(O)OP(=O)(O)OP(=O)(O)O)[C@@H](O)[C@H]1O [ATP, adenosine triphosphate]", 43.0),
]

---

target-under-test: MERS-CoV macro domain (Middle East respiratory syndrome-related coronavirus, UniProt K9N638)
Type: binding
endpoint-label: Melting temperature (Tm) of the MERS-CoV macro domain in complex, CD (°C)

# compound, value
data = [
    ("Nc1ncnc2c1ncn2[C@@H]1O[C@H](COP(=O)(O)OP(=O)(O)O)[C@@H](O)[C@H]1O [ADP, adenosine diphosphate]", 43.7),
    ("Nc1ncnc2c1ncn2[C@@H]1O[C@H](COP(=O)(O)OP(=O)(O)OP(=O)(O)O)[C@@H](O)[C@H]1O [ATP, adenosine triphosphate]", 44.4),
    ("NC(=O)c1ccc[n+]([C@@H]2O[C@H](COP(=O)([O-])OP(=O)(O)OC[C@H]3O[C@@H](n4cnc5c(N)ncnc54)[C@H](O)[C@@H]3O)[C@@H](O)[C@H]2O)c1 [NAD, nicotinamide adenine dinucleotide]", 46.6),
    ("Nc1ncnc2c1ncn2C1OC(COP(=O)(O)OP(=O)(O)OCC2OC(O)C(O)C2O)C(O)C1O (centres unmarked)", 48.8),
    ("Nc1ncnc2c1ncn2C1OC(COP(=O)(O)O)C(O)C1O (centres unmarked) [AMP, adenosine monophosphate]", 44.0),
]

---

Examples of molecules with documented NMR CSP, residue 156 follow.
target-under-test: MERS-CoV macro domain (Middle East respiratory syndrome-related coronavirus, UniProt K9N638)
Type: binding

# molecule, NMR CSP, residue 156
measured = [
    ("Nc1ncnc2c1ncn2[C@@H]1O[C@H](COP(=O)(O)OP(=O)(O)O)[C@@H](O)[C@H]1O [ADP, adenosine diphosphate]", 0.2276),
    ("Nc1ncnc2c1ncn2[C@@H]1O[C@H](COP(=O)(O)OP(=O)(O)OP(=O)(O)O)[C@@H](O)[C@H]1O [ATP, adenosine triphosphate]", 0.03888),
    ("Nc1ncnc2c1ncn2C1OC(COP(=O)(O)O)C(O)C1O (centres unmarked) [AMP, adenosine monophosphate]", 0.1498),
    ("NC(=O)c1ccc[n+]([C@@H]2O[C@H](COP(=O)([O-])OP(=O)(O)OC[C@H]3O[C@@H](n4cnc5c(N)ncnc54)[C@H](O)[C@@H]3O)[C@@H](O)[C@H]2O)c1 [NAD, nicotinamide adenine dinucleotide]", 0.0383),
    ("Nc1ncnc2c1ncn2C1OC(COP(=O)(O)OP(=O)(O)OCC2OC(O)C(O)C2O)C(O)C1O (centres unmarked)", 0.2021),
]
